- System: CEM cells HIV-1 protection, formazan growth assay
- Experiment summary: NCI AIDS Antiviral Assay;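 active = compounds giving half or more protection of infected cells from virus-caused growth loss, again on retest; inactive = the rest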
Log the outcome using a class from label 1 (active), label 0 (inactive)

Below, 5 molecules whose answers are already recorded.
{"Molecule": "CCOC(=O)c1sc2c(c1OC(=O)c1cccs1)c(=O)n(-c1ccccc1)c(=S)n2-c1ccccc1", "Experimental system": "CEM cells HIV-1 protection, formazan growth assay", "Qualitative label": "label 0"}
{"Molecule": "CCOC(=O)c1cc2c(nc1N)/C(=C/c1ccccc1)CCCC2", "Experimental system": "CEM cells HIV-1 protection, formazan growth assay", "Qualitative label": "label 0"}
{"Molecule": "CCOC1(O)C(=O)c2ccccc2OC1(OCC)c1ccccc1 (centres undefined)", "Experimental system": "CEM cells HIV-1 protection, formazan growth assay", "Qualitative label": "label 0"}
{"Molecule": "C=CCC(CCC(CC=C)C(=O)O)C(=O)O (centres undefined)", "Experimental system": "CEM cells HIV-1 protection, formazan growth assay", "Qualitative label": "label 0"}
{"Molecule": "CN1N=C(c2ccncc2)OC1c1ccc(C(F)(F)F)cc1 (centres undefined)", "Experimental system": "CEM cells HIV-1 protection, formazan growth assay", "Qualitative label": "label 0"}

For CO[C@@H]1C2C3c4ccccc4C(c4ccccc43)C2[C@H](OC)[C@H]2OC(c3ccccc3)O[C@H]21 (some centres undefined) , which call appears in the assay record?
label 0

Please indicate how the test categorized CCOP(=O)(O)C(Nc1ccc(N=Nc2ccccc2)cc1)c1cccc(C(Nc2ccc(N=Nc3ccccc3)cc2)P(=O)(O)OCC)c1 (centres undefined) .
label 0

Look up the recorded call for O=S(=O)(Nc1nnc2c3ccccc3cnn12)c1ccc(F)cc1S in this test.
label 1

###

- Test system: CEM cells HIV-1 protection, formazan growth assay
- Experiment summary: NCI AIDS Antiviral Assay
pEC50: −log10 of the molar value.
We begin with a simple list: items and their reported pEC50.

Some solved cases for reference:
{"Molecule": "Cc1c(-c2ccc(-c3ccccc3F)cc2)nc2ccc(F)cc2c1C(=O)O", "Experimental system": "CEM cells HIV-1 protection, formazan growth assay", "pEC50": "< 3.20"}
{"Molecule": "CC(C)CCCC(C)C1CCC2[C@@H]3CCC4C[C@@H](CCCO)CC[C@]4(C)C3CC[C@]12C (stereo partly specified)", "Experimental system": "CEM cells HIV-1 protection, formazan growth assay", "pEC50": "< 5.36"}
{"Molecule": "COc1cccc(C2=NC(C(C)(C)C)CO2)c1-c1ccccc1C1OCCO1 (stereo unspecified)", "Experimental system": "CEM cells HIV-1 protection, formazan growth assay", "pEC50": "< 3.47"}
{"Molecule": "Cc1ccc(S[C@@H](C)[C@@](O)(C(N)=O)c2ccccc2)cc1", "Experimental system": "CEM cells HIV-1 protection, formazan growth assay", "pEC50": "< 3.70"}

Short answer for Oc1ccc(S)cc1CNc1ccccc1 : pEC50 was < 3.70

# molecule O=C1C2C3C=CC(O3)C2C(=O)N1/N=C/c1ccc2c(c1)OCO2 (stereo unspecified) ; its pEC50 = < 3.70

###

- System: CEM cells HIV-1 protection, formazan growth assay
- Experiment summary: NCI AIDS Antiviral Assay
Measurement type: EC50

The molecule Cc1ccc(S(=O)(=O)N/N=C(\CCN2CCCC2)CC(c2ccccc2)c2c(O)c3ccccc3oc2=O)cc1 (centres undefined) showed EC50 equal to > 12 µM

Reported EC50 ( C[C@H]1CC[C@@H]2[C@@H](C)C[C@H]3[C@@H]4C(C)(C)OC(=O)[C@]4(C)C(=O)[C@@]23C1=O ) = > 200 µM

The molecule listed as CC(=O)OCC1OC(OC2=C(c3ccccc3)C(=O)C(OC3OC(COC(C)=O)C(OC(C)=O)C(OC(C)=O)C3OC(C)=O)=C(c3ccccc3)C2=O)C(OC(C)=O)C(OC(C)=O)C1OC(C)=O (centres undefined) has a reported EC50 of > 33.9 µM

// EC50 lookup, molecule = O=C(/C(=C/c1ccc(Cl)cc1)c1ccccc1)c1ccccc1 , result: > 8.51 µM

Input C/C(CCN(C)C)=N\OC(=O)c1ccccc1 . Output EC50: > 200 µM

# molecule c1ccc(CNCCCNCCCCNCCCNCc2ccccc2)cc1 ; its EC50 = > 15.1 µM

Consider COc1cccc(C=O)c1[O-].COc1cccc(C=O)c1[O-].[Ni+2] . Its measured EC50 is > 50.1 µM

Just so you know, measured EC50 for COC(=O)C(CNC(=O)/C=C/c1ccc(OC(C)=O)c(OC(C)=O)c1)NC(=O)/C=C/c1ccc(OC(C)=O)c(OC(C)=O)c1 (centres undefined) came out at > 200 µM

Reported EC50 ( COC1(OC)CC2C(=O)CCCC21OC(C)=O (centres undefined) ) = > 1020 µM

Data point: Cc1ccc(N=Nc2ccc(N(CCC#N)CCC#N)cc2C)c(Br)c1 ; EC50 = > 3.55 µM

Lab note: measured EC50 of CCC12C=CCN3CC[C@]4(C(=C(C(=O)OC)[C@@H]1Nc1ccn(C5OC(COC(C)=O)C(OC(C)=O)C5OC(C)=O)c(=O)n1)Nc1ccccc14)C32 (some centres undefined) was > 26.9 µM

Quick note, EC50 for COc1ccc2nc(N/N=C/c3ccc(C)s3)cc(C)c2c1 landed at > 200 µM

EC50 measured on Nc1ccc(N=Nc2ccc(-c3ccc(O)cc3)cc2)c2ccc(S(=O)(=O)O)cc12 = 7.94 µM

Record CC(C)(C)OC(=O)NC(Cc1ccc(OC(C)(C)C)cc1)C(=O)N[C@H]1CCC[C@H]1C(=O)NC(Cc1ccccc1)C(=O)N1CCCC1C(N)=O (some centres undefined) . Reported EC50: > 100 µM

According to the records, this molecule COc1ccccc1/C=C(\C#N)c1ccccc1 displays EC50 of > 22.4 µM

NS(=O)(=O)c1ccc(NC(NC(=O)C(C(F)(F)F)C(F)(F)F)(C(F)(F)F)C(F)(F)F)cc1 has a reported EC50 of > 200 µM

Data point: CC1(C)CCSC(/C=C/c2ccccc2)=N1 ; EC50 = > 20 µM

Reported EC50 for COC(=O)C1(C(=O)OC)N=C(C)OC1C(C)C (centres undefined) was > 200 µM

Value of measured EC50 for the entry N#CCc1nc(-c2cc3ccccc3oc2=O)cs1 : > 200 µM
